Test system: Daudi (human B-cell lymphoma) xenograft bearing CB-17 SCID mice
Experiment: Biodistribution in Daudi xenograft bearing mice
Assay type: in vivo, mouse
Conditions: 1h p.i., tracer only, i.v.; γ-counter; means ± SD, n=4-5 (68Ga: n=4)
Protocol: The biodistribution of selected compounds was investigated in Daudi (human B-cell lymphoma) xenograft bearing female CB-17 SCID mice (6-8 weeks, Charles River, Sulzfeld, Germany), [29]. […] Animals (n=4-5 per group) were injected intravenously with 5-10 MBq (0.08-0.11 nmol peptide per mouse) of the respective ^68Ga- and^ 177Lu-labeled CXCR4 ligands in PBS (100 µL) into the tail vein under isoflurane anesthesia. CXCR4-specificity of binding was determined by coinjection of 50 µg AMD3100 per mouse. […]
Where a SMILES comes first, the peptide text is derived from it. Side-chain parts run from the residue outwards. [ ]: non-standard residue; d: D form. The star is where a group is joined. DOTA = O=C(O)CN1CCN(CC(=O)O)CCN(CC(=O)*)CCN(CC(=O)O)CC1; dTyr(3-I) = N[C@H](Cc1ccc(O)c(I)c1)C(=O)O; 2Nal = N[C@@H](Cc1ccc2ccccc2c1)C(=O)O; dNMeOrn = CN[C@H](CCCN)C(=O)O; 4Amb = NCc1ccc(C(=O)O)cc1; 4Abz = Nc1ccc(C(=O)O)cc1
Observable: Biodistribution liver (%iD/g)
Kindly answer with a numeric value in %iD/g, unit omitted.

The recorded Biodistribution liver for C[C@@H](NC(=O)[C@@H](CCCNC(=N)N)NC(=O)CN1CCN(CC(=O)O)CCN(CC(=O)O)CCN(CC(=O)O)CC1)C(=O)Nc1ccc(C(=O)NCCC[C@@H]2C(=O)N[C@@H](CCCNC(=N)N)C(=O)N[C@@H](Cc3ccc4ccccc4c3)C(=O)NCC(=O)N[C@H](Cc3ccc(O)cc3)C(=O)N2C)cc1 [[^177Lu]DOTA-r-a-ABA-CPCR4] [metal not drawn] (cyclo([2Nal]G[dY][dNMeOrn]([4Abz-dA-dR-DOTA])R)) is 11.9

The recorded Biodistribution liver for C[C@@H](NC(=O)[C@@H](CCCNC(=N)N)NC(=O)CN1CCN(CC(=O)O)CCN(CC(=O)O)CCN(CC(=O)O)CC1)C(=O)Nc1ccc(C(=O)NCCC[C@@H]2C(=O)N[C@@H](CCCNC(=N)N)C(=O)N[C@@H](Cc3ccc4ccccc4c3)C(=O)NCC(=O)N[C@H](Cc3ccc(O)c(I)c3)C(=O)N2C)cc1 [[^68Ga]DOTA-r-a-ABA-iodoCPCR4] [metal not drawn] (cyclo([2Nal]G[dTyr(3-I)][dNMeOrn]([4Abz-dA-dR-DOTA])R)) is 5.66

The recorded Biodistribution liver for C[C@@H](NC(=O)[C@@H](CCCNC(=N)N)NC(=O)CN1CCN(CC(=O)O)CCN(CC(=O)O)CCN(CC(=O)O)CC1)C(=O)Nc1ccc(C(=O)NCCC[C@@H]2C(=O)N[C@@H](CCCNC(=N)N)C(=O)N[C@@H](Cc3ccc4ccccc4c3)C(=O)NCC(=O)N[C@H](Cc3ccc(O)cc3)C(=O)N2C)cc1 [[^68Ga]DOTA-r-a-ABA-CPCR4] [metal not drawn] (cyclo([2Nal]G[dY][dNMeOrn]([4Abz-dA-dR-DOTA])R)) is 5.63

The recorded Biodistribution liver for C[C@@H](NC(=O)[C@@H](CCCNC(=N)N)NC(=O)CN1CCN(CC(=O)O)CCN(CC(=O)O)CCN(CC(=O)O)CC1)C(=O)Nc1ccc(C(=O)NCCC[C@@H]2C(=O)N[C@@H](CCCNC(=N)N)C(=O)N[C@@H](Cc3ccc4ccccc4c3)C(=O)NCC(=O)N[C@H](Cc3ccc(O)c(I)c3)C(=O)N2C)cc1 [[^177Lu]DOTA-r-a-ABA-iodoCPCR4] [metal not drawn] (cyclo([2Nal]G[dTyr(3-I)][dNMeOrn]([4Abz-dA-dR-DOTA])R)) is 27.1

The recorded Biodistribution liver for CN1C(=O)[C@@H](Cc2ccc(O)c(I)c2)NC(=O)CNC(=O)[C@H](Cc2ccc3ccccc3c2)NC(=O)[C@H](CCCNC(=N)N)NC(=O)[C@H]1CCCNC(=O)c1ccc(CNC(=O)CN2CCN(CC(=O)O)CCN(CC(=O)O)CCN(CC(=O)O)CC2)cc1 [[^177Lu]PentixaTher, metal not drawn, reference compound] (cyclo([dTyr(3-I)][dNMeOrn]([4Amb-DOTA])R[2Nal]G)) is 10.3

###

experiment: Biodistribution in Daudi xenograft bearing mice; assay type: in vivo, mouse; details: female, CB-17 SCID, mouse, liver, iv, total radioactivity, 6h p.i., i.v.; means ± SD, n=4-5; read-out: Biodistribution liver
Where a SMILES comes first, the peptide text is derived from it. Side-chain parts run from the residue outwards. [ ]: non-standard residue; d: D form. The star is where a group is joined. DOTA = O=C(O)CN1CCN(CC(=O)O)CCN(CC(=O)*)CCN(CC(=O)O)CC1; dTyr(3-I) = N[C@H](Cc1ccc(O)c(I)c1)C(=O)O; 2Nal = N[C@@H](Cc1ccc2ccccc2c1)C(=O)O; dNMeOrn = CN[C@H](CCCN)C(=O)O; 4Abz = Nc1ccc(C(=O)O)cc1
Hi there, I'd appreciate the recorded tissue uptake at 6 h for every entry that follows.
Kindly answer with a numeric value in %ID/g, unit omitted.

The recorded tissue uptake at 6 h for C[C@@H](NC(=O)[C@@H](CCCNC(=N)N)NC(=O)CN1CCN(CC(=O)O)CCN(CC(=O)O)CCN(CC(=O)O)CC1)C(=O)Nc1ccc(C(=O)NCCC[C@@H]2C(=O)N[C@@H](CCCNC(=N)N)C(=O)N[C@@H](Cc3ccc4ccccc4c3)C(=O)NCC(=O)N[C@H](Cc3ccc(O)c(I)c3)C(=O)N2C)cc1 [[^177Lu]DOTA-r-a-ABA-iodoCPCR4, metal not drawn] (cyclo([2Nal]G[dTyr(3-I)][dNMeOrn]([4Abz-dA-dR-DOTA])R)) is 17.1

The recorded tissue uptake at 6 h for C[C@@H](NC(=O)[C@@H](CCCNC(=N)N)NC(=O)CN1CCN(CC(=O)O)CCN(CC(=O)O)CCN(CC(=O)O)CC1)C(=O)Nc1ccc(C(=O)NCCC[C@@H]2C(=O)N[C@@H](CCCNC(=N)N)C(=O)N[C@@H](Cc3ccc4ccccc4c3)C(=O)NCC(=O)N[C@H](Cc3ccc(O)cc3)C(=O)N2C)cc1 [[^177Lu]DOTA-r-a-ABA-CPCR4, metal not drawn] (cyclo([2Nal]G[dY][dNMeOrn]([4Abz-dA-dR-DOTA])R)) is 11.3
